Tested on: rat parieto-occipital cortex slices
assay.remarks: Release of [3H]D-aspartate evoked by 30 mM KCl under hypoglycaemic conditions in rat parieto-occipital slices
Type: cell-based
condition.details: read-out: IC50 for antagonizing the hypoglycaemia-induced increase in the release of [3H]D-aspartate
IC50 values for the compounds below.

{"columns": ["compound", "IC50 / nM"],
 "data": [
  ["CC12CC3CC(C)(C1)CC(N)(C3)C2 [Memantine, reference compound]", 7500],
  ["CC12CC3CC(C)(C1)CC(CCNC(=N)N)(C3)C2", 800],
  ["CC(=N)NCCC12CC3CC(C)(CC(C)(C3)C1)C2", 2500]
]}

====

Where a name gives a salt, the structure may show the parent alone.
property: melting point (°C)

{"columns": ["molecule", "property", "reading"],
 "data": [
  ["N=C(N)NCCC12CC3CC(CC(C3)C1)C2 (as salt: HCl)", "melting point", 246],
  ["N=C(NCCC12CC3CC(CC(C3)C1)C2)N[N+](=O)[O-]", "melting point", 260],
  ["CC12CC3CC(C)(C1)CC(CCNC(=N)C1CC1)(C3)C2", "melting point", 96],
  ["CC(=N)NCCC12CC3CC(CC(C3)C1)C2 (as salt: HCl)", "melting point", 243]
]}

====

IC50 values for the molecules below.
tested.target: NO-synthetase (NOS) (Oryctolagus cuniculus)
Sequence (G1SGE1 entry or part of it): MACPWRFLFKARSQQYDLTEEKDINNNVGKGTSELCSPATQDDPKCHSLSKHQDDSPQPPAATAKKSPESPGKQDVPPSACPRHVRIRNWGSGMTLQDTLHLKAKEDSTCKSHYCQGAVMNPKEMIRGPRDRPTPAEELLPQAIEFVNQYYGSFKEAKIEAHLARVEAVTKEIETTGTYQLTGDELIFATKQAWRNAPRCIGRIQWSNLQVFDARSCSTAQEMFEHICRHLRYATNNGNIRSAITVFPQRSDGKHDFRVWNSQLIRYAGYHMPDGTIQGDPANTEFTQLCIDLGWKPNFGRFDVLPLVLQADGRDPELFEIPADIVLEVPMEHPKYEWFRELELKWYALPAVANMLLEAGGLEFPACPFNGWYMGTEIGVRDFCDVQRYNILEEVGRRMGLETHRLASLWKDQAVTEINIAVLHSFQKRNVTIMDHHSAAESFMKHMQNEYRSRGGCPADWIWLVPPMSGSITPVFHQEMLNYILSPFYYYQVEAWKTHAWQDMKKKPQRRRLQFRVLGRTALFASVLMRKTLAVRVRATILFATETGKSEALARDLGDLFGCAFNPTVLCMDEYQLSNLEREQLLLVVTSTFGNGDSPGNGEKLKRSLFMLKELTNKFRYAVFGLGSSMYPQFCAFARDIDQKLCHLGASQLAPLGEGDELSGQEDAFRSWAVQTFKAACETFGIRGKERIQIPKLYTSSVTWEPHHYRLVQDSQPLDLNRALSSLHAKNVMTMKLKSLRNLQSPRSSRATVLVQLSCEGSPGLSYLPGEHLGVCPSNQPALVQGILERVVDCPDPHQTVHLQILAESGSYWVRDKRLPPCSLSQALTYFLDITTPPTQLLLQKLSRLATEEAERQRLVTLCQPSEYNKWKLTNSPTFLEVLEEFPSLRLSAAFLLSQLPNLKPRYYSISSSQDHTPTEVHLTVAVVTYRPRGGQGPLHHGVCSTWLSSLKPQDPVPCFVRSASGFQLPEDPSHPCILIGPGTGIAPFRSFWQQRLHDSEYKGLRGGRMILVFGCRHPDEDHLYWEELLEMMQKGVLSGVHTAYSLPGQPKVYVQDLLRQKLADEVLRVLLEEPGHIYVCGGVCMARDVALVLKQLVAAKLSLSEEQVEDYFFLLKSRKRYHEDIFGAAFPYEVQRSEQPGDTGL
assay.remarks: Inhibition of NO (nitrite) formation in rabbit articular chondrocytes stimulated with IL-1β
condition.details: nitrite formation, IL-1β 1 ng/ml, 48 hours; 95% confidence limits in parentheses; read-out: Rabbit articular chondrocytes % inhibition (IC50 × 10^−6M)
property: IC50 (µM)

{"columns": ["molecule", "value.units", "reading"],
 "data": [
  ["CC12CC3CC(C)(C1)CC(CCNC(=N)N[N+](=O)[O-])(C3)C2 [Compound 6]", "µM", 80.4],
  ["COC(=O)[C@@H](N)CCCNC(=N)N[N+](=O)[O-] [L-NAME]", "µM", 340]
]}

====

pIC50 values for the molecules below.
tested.target: NMDA receptor
Construct: IC50, concentration displacing 50% of the ligand (MK-801) from the receptor; other: rat cortical membranes, H3-MK-801
assay.remarks: Binding of [3H]MK-801 to rat cortical synaptosomial membranes
condition.details: H3-MK-801, 45 min at 23° C., read-out: IC50, concentration displacing 50% of the ligand (MK-801) from the receptor
pIC50: −log10 of the molar value.
property: pIC50

{"columns": ["molecule", "reading"],
 "data": [
  ["CC12CC3CC(C)(C1)CC(CCNC(=N)N)(C3)C2", "~4.40"],
  ["CC(=N)NCCC12CC3CC(C)(CC(C)(C3)C1)C2", "~4.40"],
  ["CC12CC3CC(C)(C1)CC(N)(C3)C2 [Memantine, reference compound]", 4.10]
]}
